target: lysosomal glucocerebrosidase (Homo sapiens, UniProt P04062); construct: gene GBA1; assay: fluorogenic (4-methylumbelliferone) glucocerebrosidase activity assay in lysates of CBE-treated human LUHMES cells, […] h dose range; assay type: cell-based
Sequence (P04062 40-536): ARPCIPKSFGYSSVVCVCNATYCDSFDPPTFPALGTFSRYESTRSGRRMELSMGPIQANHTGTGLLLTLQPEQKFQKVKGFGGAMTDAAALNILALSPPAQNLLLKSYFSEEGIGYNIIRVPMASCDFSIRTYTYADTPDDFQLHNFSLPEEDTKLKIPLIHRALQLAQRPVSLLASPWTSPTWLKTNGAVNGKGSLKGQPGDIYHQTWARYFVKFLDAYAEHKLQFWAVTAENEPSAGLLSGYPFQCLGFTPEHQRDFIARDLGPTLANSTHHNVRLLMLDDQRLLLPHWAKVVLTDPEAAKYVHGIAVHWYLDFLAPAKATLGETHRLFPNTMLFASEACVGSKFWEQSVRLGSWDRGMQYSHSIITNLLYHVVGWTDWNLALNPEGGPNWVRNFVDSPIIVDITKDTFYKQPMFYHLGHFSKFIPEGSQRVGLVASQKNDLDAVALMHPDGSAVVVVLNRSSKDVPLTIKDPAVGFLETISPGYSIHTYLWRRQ
pIC50: −log10 of the molar value.

{"MOLECULE": "O[C@H]1[C@H](O)[C@@H](O)[C@@H]2O[C@@H]2[C@@H]1O [conduritol-beta-epoxide]", "pIC50": "~5.05"}
